Provide the recorded LC50 (necessary concentration to kill 50% of the bacteria), TC11 for the entries that follow.
Test system: Shewanella sp. (TC11)
Experiment: Toxicity test, strain TC11
Assay type: cell-based
Just the number in µM, nothing appended.

Entry under review: `CN(C)CCCOc1ccc(CCn2cc(-c3ccc(-c4cn(CCc5ccc(OCCCN(C)C)c(Br)c5)nn4)cc3)nn2)cc1Br` . Reported LC50 (necessary concentration to kill 50% of the bacteria), TC11?
293

Entry under review: `CN(C)CCOc1c(Br)cc(CCn2cc(-c3ccc(-c4cn(CCc5cc(Br)c(OCCN(C)C)c(Br)c5)nn4)cc3)nn2)cc1Br` . Reported LC50 (necessary concentration to kill 50% of the bacteria), TC11?
134.8

Entry under review: `CN(C)CCOc1ccc(CCn2cc(-c3ccc(-c4cn(CCc5ccc(OCCN(C)C)c(Br)c5)nn4)cc3)nn2)cc1Br` . Reported LC50 (necessary concentration to kill 50% of the bacteria), TC11?
334.3

Entry under review: `Oc1ccc(CCn2cc(-c3ccc(-c4cn(CCc5ccc(O)c(I)c5)nn4)cc3)nn2)cc1I` . Reported LC50 (necessary concentration to kill 50% of the bacteria), TC11?
88.4

Entry under review: `CN(C)CCCOc1c(Br)cc(CCn2cc(-c3ccc(-c4cn(CCc5cc(Br)c(OCCCN(C)C)c(Br)c5)nn4)cc3)nn2)cc1Br` . Reported LC50 (necessary concentration to kill 50% of the bacteria), TC11?
115.9
